# Protocol Details: NCI Yeast Anticancer Drug Screen. Data for the sgs1 mgt1 strain (AID 161);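 further: 0% = growth of cultures given vehicle only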
# Reported Conditions: S. cerevisiae sgs1 mgt1 strain, at 5.0 µM (retest, dose inferred, filed as 0.5), active compounds read high
# Experimental: Growth inhibition of yeast strains with defined genetic alterations is measured as a screen for potential anti-cancer activity. Selected strains with alterations in DNA damage repair or cell cycle control were exposed to compounds and growth inhibition was measured relative to vehicle treated controls. The strain used in this assay is sgs1 mgt1
The panel holds about 79,000 compounds, 15% with a hit somewhere; the sample as a whole holds those more often.
Kindly state growth inhibition for each of the entries shown.
Record the value in %, omitting the unit from your answer.

IN: Return reported growth inhibition; argument: O=Cc1coc2ccccc2c1=O
OUT: 9

IN: Return reported growth inhibition; argument: CCOc1ccc(C(=O)CCC(=O)O)c(C)c1
OUT: 9

IN: Return reported growth inhibition; argument: COc1ccc2c(c1)[nH]c1c(/C=C/c3ccccc3)nccc12
OUT: -28

IN: Return reported growth inhibition; argument: O=[N+]([O-])c1cc(S(=O)(=O)Nc2ccccc2)ccc1Cl
OUT: -26

IN: Return reported growth inhibition; argument: Cc1ccc2c(ccc(/C=C/c3ccc(O)c4ncccc34)[n+]2C)c1
OUT: 23

IN: Return reported growth inhibition; argument: C=C1N(C)c2ccc(Cl)cc2C1(C)C
OUT: -6

Values compiled from PubChem BioAssay (NCI).
